Numbers sourced from the RNAGym collection of RNA variant scans (doi:10.7554/elife.80360).

Answer each item with its documented self-cleavage.
B1: CPEB3 Ribozyme (parent)
chain: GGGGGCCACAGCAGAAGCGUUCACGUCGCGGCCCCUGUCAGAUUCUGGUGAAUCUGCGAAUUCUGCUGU

- Variants of: B1
- test name: self-cleavage, relative activity (ratio to wild type); higher = more cleavage; co-transcriptional
Please give only the number in your answer, with no unit.

Recorded result, G25A G37A , self-cleavage: 0.187

Recorded result, U21A U38A , self-cleavage: 0.276

Recorded result, U38A G50C , self-cleavage: 0.911

Recorded result, G30C G65C , self-cleavage: 0.431

Recorded result, A52C C63G , self-cleavage: 0.688

Recorded result, C45U G50A , self-cleavage: 1.01

Recorded result, U20A U46C , self-cleavage: 0.0817

Recorded result, C7A U44G , self-cleavage: 0.305

Recorded result, U20G A51G , self-cleavage: 0.193

Recorded result, G11A G47C , self-cleavage: 0.895

Recorded result, C24U G37U , self-cleavage: 0.251

Recorded result, A8C A16U , self-cleavage: 0.843

Recorded result, G37U C57U , self-cleavage: 0.264

Recorded result, A10U G37A , self-cleavage: 0.322

Recorded result, C6G A13G , self-cleavage: 0.0914

Recorded result, G30U C35A , self-cleavage: 0.191

Recorded result, C39U C66U , self-cleavage: 0.885
